Sourced from PubChem BioAssay (NCI)

- Tested on: NCI-H460 lung
- Test name: NCI-60 one-dose screen, 48 h
- Test context: 10 µM unless noted
- Method: Growth inhibition of the NCI-H460 human Non-Small Cell Lung tumor cell line is measured as a screen for anti-cancer activity. Cells are grown in 96 well plates and exposed to the test compound for 48 hours. Compounds are tested at a single concentration, which is 10^-5 M for most compounds. The reported endpoint is percent growth (GI% or GIPRCNT), where numbers from 0 - 100% represent growth inhibition, and numbers from -100% - 0 represent cell death. […]
The panel holds about 83,000 compounds, 20% with a hit somewhere; the sample as a whole holds those more often. Activity calls are given as the source filed them. The calls were made as follows: active = growth percent below 10; inactive = the rest.
Classes used: active, inactive

1. O=C1c2cc3c(cc2-c2c1c1ccc(Cl)cc1c(=O)n2C[C@H](O)[C@@H](O)[C@H](O)CO)OCO3 | active
2. Oc1ccccc1/C=N\NC(=S)Nc1ccc(F)cc1 | active
3. COc1ccc2c(c1)c(-c1nc(-c3c[nH]c4ncccc34)cs1)cn2CCNC(=O)OC(C)(C)C | inactive
4. Nc1nc2c3ccncc3cc(-c3cccc(Cl)c3)c2c2cnccc12 | inactive
5. COc1ccc(C2=NN(c3nc(-c4ccc(OC)cc4)c(C#N)c(=O)n3C)C(=O)CC2)cc1 | inactive
6. O=C1C(=O)N(CCCCn2cc(-c3ccccc3)nn2)c2ccccc21 | inactive
7. C=C(C)[C@@H]1CC[C@]2(C(=O)N3CCN(C)CC3)CC[C@]3(C)[C@H](CC[C@@H]4[C@@]5(C)C/C(=C/c6ccc(C(F)(F)F)cc6)C(=O)C(C)(C)[C@@H]5CC[C@]43C)[C@@H]12 | inactive
8. COc1cc(OC)c2c(c1)c1nc3cc(C)c(C)cc3nc1n2CCN(C)C | inactive
9. C[C@H]1[C@H]2C3=CC[C@@H]4[C@@]5(C)C/C(=C/c6ccco6)C(=O)C(C)(C)[C@@H]5CC[C@@]4(C)[C@]3(C)CC[C@@]2(C(=O)N2CCOCC2)CC[C@@H]1C | inactive
10. COc1cccc(-c2nn(-c3ccccc3)cc2-c2ccnc(NCCCO)c2)c1 | inactive
11. O=C(NC(Cc1cn(Cc2ccccc2)cn1)C(=O)O)OCC1c2ccccc2-c2ccccc21 (stereo not given) | inactive
12. C/C(=N\Nc1ccc2ccccc2n1)c1ccccn1 | active
13. COc1ccc(/C=C2\N=C(c3ccccc3)N(c3cc(OC)c(OC)cc3C(=O)N3N=C(C)CC3=O)C2=O)cc1 | inactive
14. COc1cc2ncnc(Nc3ccc(OCc4cccc(F)c4)c(Cl)c3)c2cc1NC(=O)C1CCCC1 | inactive
15. COc1ccc2c3c(c4ccccc4cc13)C(=O)N(CCN(C)CCN)C2=O | active
16. O=C(/C=C/c1cccc(O)c1)c1ccccc1O | inactive
17. Cn1cc(-c2nc(-c3c[nH]c4ncccc34)cs2)c2cc(Cl)ccc21 | inactive
18. Cn1c(=O)c2c(ncn2CCC(=O)Nc2ccc(F)cc2)n(C)c1=O | inactive
19. Brc1ccc(Cn2nnnc2-c2ccn(-c3ccccc3)n2)cc1 | inactive
20. COC(=O)[C@]12CC[C@@H](C)[C@H](C)[C@@H]1C1=CC[C@@H]3[C@@](C)(CC#N)C4=C(C[C@@]3(C)[C@]1(C)CC2)OC[C@]4(C)C=O | active
21. Oc1cccc2oc(=S)[nH]c12 | inactive
22. COc1ccc(-c2cc(-c3c(C)oc4cc5occc5c(OC)c4c3=O)nc(N)c2C#N)cc1OC | inactive
23. COc1ccc2c(c1)c(-c1nc(-c3c[nH]c4ncccc34)cs1)cn2C | inactive
24. Cc1cccc(C)c1NCc1nc(-c2ccccc2)n[nH]1 | inactive
25. CC(C)(C)c1ccc(OP(=S)(N/N=C/c2ccccc2O)Oc2ccc(C(C)(C)C)cc2)cc1 | inactive
